# measurement_protocol: COS7 lysate on small-molecule microarray, probe aHis, 635 nm (AID 1123);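 note: z-score combines 667nm fluorescence intensity with signal-to-noise per printed compound spot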
# settings: COS7 cell lysate, fluorescence, higher = more signal
observed_property: composite z-score
API doc: respond with a numeric literal and nothing else, no unit.

Worked cases, answers included:
molecule="COc1cc(C(O)C2C=CC3C(=O)NC(=O)C3N2Nc2ccc(Cl)cc2Cl)cc(OC)c1OC (stereo unspecified)" reading=2.99
molecule="C=CCC(OC(C)=O)[C@@H]1[C@@H](N(Cc2cccc3ccccc23)C(=O)c2ccc(C)cc2)c2cc(OCCCO)ccc2N1C(=O)c1ccc2ccccc2c1 (stereo partly specified)" reading=0.583
molecule="COc1cc(NN2C(C(O)c3ccc(I)cc3)C=CC3C(=O)N(C)C(=O)C32)cc(OC)c1OC (stereo unspecified)" reading=1.63

Task: Give reported composite z-score value for COCCOC(=O)N1C(=O)[C@@]2(c3cc(C#CC4(O)CCCCCC4)ccc31)[C@H](C(=O)N1CCc3cc(OC)c(OC)cc3C1)[C@H]1C(=O)O[C@H](c3ccccc3)[C@H](c3ccccc3)N1[C@@H]2c1ccccc1OCCO
Result: 0.29

Task: Consider the molecule C[C@H]1ON(c2ccccc2)[C@@H](c2ccccc2)[C@@H]1C(=O)N1C(=O)OC[C@@H]1c1ccccc1 . State its measured composite z-score.
Result: 0.46

Task: # return recorded composite z-score for entry COc1ccccc1CN1C(=O)c2ccccc2[C@@]2(Cc3ccccc3N(C3CC3)C2=O)[C@@H]1c1ccc(CO)cc1
Result: 0.165
